molecular target: Nluc-FZD6 (Homo sapiens, UniProt O60353); construct: expressed in transfected cells; host or cells: ΔSMO HEK293A or ΔFZD1–10 HEK293T cells (screen); ΔFZD1–10 HEK293T cells (concentration–response curves); experiment: BRET-based BODIPY-cyclopamine competition binding at Nluc-FZD6 in live HEK293 cells; details: BODIPY-cyclopamine 200 nM; ΔFZD1-10 HEK293T cells
Sequence (O60353 19-706): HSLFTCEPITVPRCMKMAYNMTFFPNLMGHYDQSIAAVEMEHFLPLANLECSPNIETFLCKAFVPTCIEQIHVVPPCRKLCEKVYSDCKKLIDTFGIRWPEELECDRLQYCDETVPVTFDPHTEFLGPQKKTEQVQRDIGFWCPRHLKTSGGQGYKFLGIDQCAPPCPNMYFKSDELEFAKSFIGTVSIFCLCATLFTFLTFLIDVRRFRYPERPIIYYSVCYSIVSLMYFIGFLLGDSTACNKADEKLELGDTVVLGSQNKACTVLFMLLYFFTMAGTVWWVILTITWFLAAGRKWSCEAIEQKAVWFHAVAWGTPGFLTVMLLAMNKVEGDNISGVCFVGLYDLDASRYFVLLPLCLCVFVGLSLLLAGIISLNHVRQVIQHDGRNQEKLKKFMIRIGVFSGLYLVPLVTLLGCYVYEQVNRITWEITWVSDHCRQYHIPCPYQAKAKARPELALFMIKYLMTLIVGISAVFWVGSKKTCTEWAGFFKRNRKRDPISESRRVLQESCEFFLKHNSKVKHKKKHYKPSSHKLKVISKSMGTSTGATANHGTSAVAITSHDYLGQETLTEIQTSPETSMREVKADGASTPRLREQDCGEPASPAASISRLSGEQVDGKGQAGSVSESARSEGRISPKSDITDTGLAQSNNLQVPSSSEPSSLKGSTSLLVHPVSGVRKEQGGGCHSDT
measurementName: pIC50 (Nluc-FZD6) mean ± SEM

{"sampleSmiles": "Nc1ccc(C(=O)N[C@H]2CC[C@H](N(Cc3cccc(-c4ccncc4)c3)C(=O)c3sc4ccccc4c3Cl)CC2)nn1", "measuredTarget": "Nluc-FZD6 (Homo sapiens, UniProt O60353)", "pIC50 (Nluc-FZD6) mean ± SEM": 5.54}
{"sampleSmiles": "CN1CCC(C(=O)Nc2cccc(C(=O)N[C@H]3CC[C@H](N(Cc4cccc(-c5ccncc5)c4)C(=O)c4sc5ccccc5c4Cl)CC3)c2)CC1", "measuredTarget": "Nluc-FZD6 (Homo sapiens, UniProt O60353)", "pIC50 (Nluc-FZD6) mean ± SEM": 5.49}
{"sampleSmiles": "O=C(CN1CCOCC1)Nc1cccc(C(=O)N[C@H]2CC[C@H](N(Cc3cccc(-c4ccncc4)c3)C(=O)c3sc4ccccc4c3Cl)CC2)c1", "measuredTarget": "Nluc-FZD6 (Homo sapiens, UniProt O60353)", "pIC50 (Nluc-FZD6) mean ± SEM": 5.71}
{"sampleSmiles": "CN1CCN(CC(=O)Nc2cccc(C(=O)N[C@H]3CC[C@H](N(Cc4cccc(-c5ccncc5)c4)C(=O)c4sc5ccccc5c4Cl)CC3)c2)CC1", "measuredTarget": "Nluc-FZD6 (Homo sapiens, UniProt O60353)", "pIC50 (Nluc-FZD6) mean ± SEM": 5.50}
{"sampleSmiles": "CCC(=O)Nc1cccc(C(=O)N[C@H]2CC[C@H](N(Cc3cccc(-c4ccncc4)c3)C(=O)c3sc4ccccc4c3Cl)CC2)c1", "measuredTarget": "Nluc-FZD6 (Homo sapiens, UniProt O60353)", "pIC50 (Nluc-FZD6) mean ± SEM": 5.57}
{"sampleSmiles": "O=C(N[C@H]1CC[C@H](N(Cc2cccc(-c3ccncc3)c2)C(=O)c2sc3ccccc3c2Cl)CC1)c1ccco1", "measuredTarget": "Nluc-FZD6 (Homo sapiens, UniProt O60353)", "pIC50 (Nluc-FZD6) mean ± SEM": 5.29}
{"sampleSmiles": "O=C(N[C@H]1CC[C@H](N(Cc2cccc(-c3ccncc3)c2)C(=O)c2sc3ccccc3c2Cl)CC1)c1ccncc1Cl", "measuredTarget": "Nluc-FZD6 (Homo sapiens, UniProt O60353)", "pIC50 (Nluc-FZD6) mean ± SEM": 5.44}
{"sampleSmiles": "CC(C)C(=O)Nc1cccc(C(=O)N[C@H]2CC[C@H](N(Cc3cccc(-c4ccncc4)c3)C(=O)c3sc4ccccc4c3Cl)CC2)c1", "measuredTarget": "Nluc-FZD6 (Homo sapiens, UniProt O60353)", "pIC50 (Nluc-FZD6) mean ± SEM": 5.13}

Data origin: paper PMC12605013
